Values from the supplement of paper PMC7125110

B1: glmS ribozyme (parent)
chain: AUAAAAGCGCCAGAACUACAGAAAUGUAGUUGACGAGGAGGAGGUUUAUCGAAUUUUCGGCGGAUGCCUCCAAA

Variants of: B1
protocolNotes: self-cleavage kobs at 160 uM GlcN6P; higher = faster cleavage; RNA array
conditionsUsed: with glucosamine-6-phosphate
Fewer inactive variants are shown than the library holds.
reportedEndpoint: self-cleavage kobs at 160 uM GlcN6P

Just so you know, measured self-cleavage kobs at 160 uM GlcN6P for U47A G66A came out at 0.00046 s⁻¹

The measured self-cleavage kobs at 160 uM GlcN6P associated with G41C U65G reads < 1e-05 s⁻¹

What the record says about U54G C70A : self-cleavage kobs at 160 uM GlcN6P is 7.71e-05 s⁻¹

Record A36U G44A U55A , field self-cleavage kobs at 160 uM GlcN6P: < 1e-05 s⁻¹

Recorded self-cleavage kobs at 160 uM GlcN6P (variant A12U U47C ): 0.000599 s⁻¹

Record summary for U69G : reported self-cleavage kobs at 160 uM GlcN6P = 5.87e-05 s⁻¹

self-cleavage kobs at 160 uM GlcN6P for G29A G63C C70G is 7.77e-05 s⁻¹

Lab note: measured self-cleavage kobs at 160 uM GlcN6P of U31C C34U C71U was < 1e-05 s⁻¹

Notebook: A6C C8G G66C , self-cleavage kobs at 160 uM GlcN6P read as < 1e-05 s⁻¹

In plain terms, U46G A53G has a documented self-cleavage kobs at 160 uM GlcN6P of 0.000482 s⁻¹

Short answer for G7U C10U G35A C68G : self-cleavage kobs at 160 uM GlcN6P was 0.000125 s⁻¹

Input G43C G63U . Output self-cleavage kobs at 160 uM GlcN6P: < 1e-05 s⁻¹

Looking up U31G C61A , I see its self-cleavage kobs at 160 uM GlcN6P listed as < 1e-05 s⁻¹

Input A52C G59A . Output self-cleavage kobs at 160 uM GlcN6P: < 1e-05 s⁻¹

Note to self: self-cleavage kobs at 160 uM GlcN6P recorded for A15G G41U G62U was < 1e-05 s⁻¹

The variant identified as G35C A42U registered its self-cleavage kobs at 160 uM GlcN6P at < 1e-05 s⁻¹

Value of self-cleavage kobs at 160 uM GlcN6P reported for the variant C34U C61G is < 1e-05 s⁻¹

// self-cleavage kobs at 160 uM GlcN6P lookup, variant = A48U U56C , result: < 1e-05 s⁻¹

According to the records, this variant A39U A64G displays self-cleavage kobs at 160 uM GlcN6P of 0.00134 s⁻¹

A6C G35C G41A G62A yielded self-cleavage kobs at 160 uM GlcN6P of < 1e-05 s⁻¹

// sample A12C A53G , its self-cleavage kobs at 160 uM GlcN6P was 0.00162 s⁻¹

self-cleavage kobs at 160 uM GlcN6P reported for this variant U45G U65A : 0.000296 s⁻¹

Short answer for U31C A53G : self-cleavage kobs at 160 uM GlcN6P was 0.000305 s⁻¹

Short answer for A39U A53U : self-cleavage kobs at 160 uM GlcN6P was 0.000985 s⁻¹

Notebook: A53U G66U , self-cleavage kobs at 160 uM GlcN6P read as 6.64e-05 s⁻¹

For record G29A U31A the listed self-cleavage kobs at 160 uM GlcN6P is 0.000184 s⁻¹

// field: self-cleavage kobs at 160 uM GlcN6P; key: A52G G60C ; value = < 1e-05 s⁻¹

For this variant ( A39U U45A ), measured self-cleavage kobs at 160 uM GlcN6P is 0.00209 s⁻¹

Looking up A48G U65A , I see its self-cleavage kobs at 160 uM GlcN6P listed as < 1e-05 s⁻¹

GET /value?item= A36G C58A G60A &field=self-cleavage kobs at 160 uM GlcN6P returns < 1e-05 s⁻¹

Recorded self-cleavage kobs at 160 uM GlcN6P (variant U30A C70U ): 0.000386 s⁻¹

Record C8A G13A G43U G51U , field self-cleavage kobs at 160 uM GlcN6P: < 1e-05 s⁻¹

self-cleavage kobs at 160 uM GlcN6P reading for A14G G44A : 4.23e-05 s⁻¹

Value of self-cleavage kobs at 160 uM GlcN6P reported for the variant C16A G37C G59C is < 1e-05 s⁻¹

Measured self-cleavage kobs at 160 uM GlcN6P of G7U A39G : < 1e-05 s⁻¹

Sure, the documented self-cleavage kobs at 160 uM GlcN6P for U65A C67A is 9.4e-05 s⁻¹

The variant listed as G13U C34G shows self-cleavage kobs at 160 uM GlcN6P equal to < 1e-05 s⁻¹

Short answer for C16A G35U G43C C68U : self-cleavage kobs at 160 uM GlcN6P was < 1e-05 s⁻¹

Value of self-cleavage kobs at 160 uM GlcN6P reported for the variant A6U U46C is < 1e-05 s⁻¹

The reported value for G32U G59C in terms of self-cleavage kobs at 160 uM GlcN6P is < 1e-05 s⁻¹

Recorded self-cleavage kobs at 160 uM GlcN6P (variant U46G U47C ): 0.000744 s⁻¹

Record G29U U30G , field self-cleavage kobs at 160 uM GlcN6P: 0.000286 s⁻¹

What the record says about G29U C34U U46G U47G G63A : self-cleavage kobs at 160 uM GlcN6P is < 1e-05 s⁻¹

Value of self-cleavage kobs at 160 uM GlcN6P reported for the variant A39C U49A is < 1e-05 s⁻¹

Lab note: measured self-cleavage kobs at 160 uM GlcN6P of U45G U54A was 0.000437 s⁻¹

// field: self-cleavage kobs at 160 uM GlcN6P; key: A12G A52U G66U ; value = < 1e-05 s⁻¹

For G9C G38C the variant record lists self-cleavage kobs at 160 uM GlcN6P as < 1e-05 s⁻¹

self-cleavage kobs at 160 uM GlcN6P for G37C U65A is < 1e-05 s⁻¹

U31C A53U yielded self-cleavage kobs at 160 uM GlcN6P of 0.000269 s⁻¹

Value of self-cleavage kobs at 160 uM GlcN6P reported for the variant G43U G59U is < 1e-05 s⁻¹

Field self-cleavage kobs at 160 uM GlcN6P (entry G38A G43U ) reads < 1e-05 s⁻¹

Noted for C8G A14U G66U : its self-cleavage kobs at 160 uM GlcN6P reads < 1e-05 s⁻¹

self-cleavage kobs at 160 uM GlcN6P reported for this variant C8G G51A U55G : < 1e-05 s⁻¹

// sample U30G A48G , its self-cleavage kobs at 160 uM GlcN6P was < 1e-05 s⁻¹

self-cleavage kobs at 160 uM GlcN6P measured on G44U A52U G62C = < 1e-05 s⁻¹

Reported self-cleavage kobs at 160 uM GlcN6P ( G43U G63C ) = < 1e-05 s⁻¹

Short answer for A14G C58G U69A : self-cleavage kobs at 160 uM GlcN6P was 3.98e-05 s⁻¹

Looking up A6G G35U , I see its self-cleavage kobs at 160 uM GlcN6P listed as < 1e-05 s⁻¹

Record G13C U46G , field self-cleavage kobs at 160 uM GlcN6P: < 1e-05 s⁻¹

The recorded self-cleavage kobs at 160 uM GlcN6P for A12C U54G G66U is 8.77e-05 s⁻¹

// self-cleavage kobs at 160 uM GlcN6P lookup, variant = A12G G32U , result: 4.1e-05 s⁻¹

Measured self-cleavage kobs at 160 uM GlcN6P of G37U G38C : < 1e-05 s⁻¹

self-cleavage kobs at 160 uM GlcN6P reading for A48C U54A : 3.98e-05 s⁻¹

Quick note, self-cleavage kobs at 160 uM GlcN6P for U65C G66C landed at < 1e-05 s⁻¹

Lab note: measured self-cleavage kobs at 160 uM GlcN6P of C8U G9C U31G A33C was < 1e-05 s⁻¹

Kindly note the recorded self-cleavage kobs at 160 uM GlcN6P for A14G A53U , which is 0.00482 s⁻¹

Per the records, this variant ( G7U C67U ) has self-cleavage kobs at 160 uM GlcN6P equal to < 1e-05 s⁻¹

The recorded self-cleavage kobs at 160 uM GlcN6P for G41A G62C is < 1e-05 s⁻¹

Sure, the documented self-cleavage kobs at 160 uM GlcN6P for C8G G60C is < 1e-05 s⁻¹

Just so you know, measured self-cleavage kobs at 160 uM GlcN6P for G13A G62A came out at < 1e-05 s⁻¹

The recorded self-cleavage kobs at 160 uM GlcN6P for A6C C34A is < 1e-05 s⁻¹

Briefly, self-cleavage kobs at 160 uM GlcN6P measured for G32U A36U : < 1e-05 s⁻¹

Field self-cleavage kobs at 160 uM GlcN6P (entry A48U A53G ) reads 2.96e-05 s⁻¹

The reported self-cleavage kobs at 160 uM GlcN6P of the variant A15G C70G was 0.000137 s⁻¹

So for U47A G63C , the logged self-cleavage kobs at 160 uM GlcN6P turned out to be < 1e-05 s⁻¹

Lab note: C10U G32U gave self-cleavage kobs at 160 uM GlcN6P of < 1e-05 s⁻¹

Memo: G43C A52C U57C , reported self-cleavage kobs at 160 uM GlcN6P: < 1e-05 s⁻¹

Sample G35A G43U C68U ; self-cleavage kobs at 160 uM GlcN6P observed: < 1e-05 s⁻¹

Please fill in: self-cleavage kobs at 160 uM GlcN6P reported for G40A C50U U54C C68U = < 1e-05 s⁻¹

In plain terms, A15C C34A has a documented self-cleavage kobs at 160 uM GlcN6P of < 1e-05 s⁻¹

Briefly, self-cleavage kobs at 160 uM GlcN6P measured for U30C U31C : 0.000413 s⁻¹

Lab note: measured self-cleavage kobs at 160 uM GlcN6P of G37C G41C was < 1e-05 s⁻¹

Record U45A A53U U65A , field self-cleavage kobs at 160 uM GlcN6P: 0.000624 s⁻¹

Entry G13C U30C A36G G41C C70A , self-cleavage kobs at 160 uM GlcN6P reported as < 1e-05 s⁻¹

The value of self-cleavage kobs at 160 uM GlcN6P measured for the variant A6G G37U turned out to be < 1e-05 s⁻¹

Lookup result for A12G G35U A42C A48C U57C ; measured self-cleavage kobs at 160 uM GlcN6P: < 1e-05 s⁻¹

The measured self-cleavage kobs at 160 uM GlcN6P associated with G29A A39C reads 7.61e-05 s⁻¹
